Sourced from patent US10980889B1

- System: P-Akt (S473)
- Assay overview: Cell based AlphaLISA assay, inhibition of P-Akt (S473) in MDA-MB-468 cells (mTORC2 substrate)
- Study conditions: AlphaLisa, two to four hours at 37° C.
Endpoint name: pIC50 for Inhibition of mTORC1 and mTORC2 Substrate Phosphorylation p-AKT1/2/3-(S473)

| Line notation | Target under test | Measured value |
| --- | --- | --- |
| CO[C@H]1C[C@@H]2CC[C@@H](C)[C@@](O)(O2)C(=O)C(=O)N2CCCC[C@H]2C(=O)O[C@H]([C@H](C)C[C@@H]2CC[C@@H](OC(=O)NCc3cnc(N4CCN(C(=O)CN(C)CC(=O)NCCOCCOCCC(=O)N5CCc6cc(Cn7nc(-c8ccc9oc(N)nc9c8)c8c(N)ncnc87)ccc6C5)CC4)nc3)[C@H](OC)C2)C[C@@H](OC)[C@H](C)/C=C(\C)[C@@H](O)[C@@H](OC)C(=O)[C@H](C)C[C@H](C)/C=C/C=C/C=C/1C | P-Akt (S473) | − (<6) |
| CO[C@H]1C[C@@H]2CC[C@@H](C)[C@@](O)(O2)C(=O)C(=O)N2CCCC[C@H]2C(=O)O[C@H]([C@H](C)C[C@@H]2CC[C@@H](OC(=O)NCc3cnc(N4CCN(c5ncc(C(=O)NCCOCCOCCOCCOCCC(=O)N6CCc7cc(Cn8nc(-c9cnc%10[nH]ccc%10c9)c9c(N)ncnc98)ccc7C6)c(N)n5)CC4)nc3)[C@H](OC)C2)CC(=O)[C@H](C)/C=C(\C)[C@@H](O)[C@@H](OC)C(=O)[C@H](C)C[C@H](C)/C=C/C=C/C=C/1C | P-Akt (S473) | − (<6) |
